Source of measurements: PubChem BioAssay AID256

System: CD2F1 mice, L1210 leukemia ip, survival T/C
Experiment: NCI In Vivo Anticancer Drug Screen. Data for tumor model L1210 Leukemia (intraperitoneal) in CD2F1 (CDF1) mice
Conditions: endpoint: mean survival time; dose: 400.0 mg/kg/injection; schedule: Q04DX003 (ip); vehicle: saline with Tween-80; higher = longer survival
Toxic doses and inconclusive results are not listed.
Let's look at some compounds and their measured T/C.
MEASURED_ENDPOINT: T/C

>>> print(df.to_string())
                                    compound  measured_endpoint        test_value
 0  CN1C(=O)C2C3CCC(C)(O3)C2C1=O (stereo not drawn)                T/C   98 % of control
 1               CCOC(=O)CN1CC(=O)Nc2ccccc21                T/C  111 % of control
 2            Nc1cccc2cc3ccccc3[n+]([O-])c12                T/C   95 % of control
 3  O=C1OC(=O)C2C3C=CC(C3)C12 (stereo not drawn)                T/C  102 % of control
 4             O=C(Nc1ccc(Cl)cc1)OCCN1CCOCC1                T/C   89 % of control
 5                  CC1(C)COC(CCc2ccccc2)=N1                T/C   86 % of control
 6                        COc1ccc(O)c(C=O)c1                T/C   95 % of control
 7  C(=N/N=C(\C(=N\N=C\c1ccc2c(c1)CCC2)c1ccccc1)c1ccccc1)\c1ccc2c(c1)CCC2                T/C   87 % of control
 8  CC(CC(=O)O)c1ccc(F)cc1 (stereo not drawn)                T/C   95 % of control
 9  CC1=C/C(=N\Nc2ccccc2)C(C(O)(C(F)(F)Cl)C(F)(F)Cl)C(C)(C)C1 (stereo not drawn)                T/C   93 % of control
10  CC(C)(C)CC(C)(C)c1ccc(OCCOc2ccc(C(=O)Nc3ccc(S(=O)(=O)Oc4ccccc4)cc3)cc2[N+](=O)[O-])cc1                T/C   92 % of control
11                   COc1ccc(NC(=S)N(C)C)cc1                T/C   92 % of control
12  Clc1nc(Cl)nc(-c2cn(-c3ccccc3)c3ccccc23)n1                T/C   98 % of control
13  CC(C)c1ccc(C2CCCCC2O)cc1 (stereo not drawn)                T/C   94 % of control
14                    O=C(O)c1cnc(Cl)c(Br)c1                T/C   93 % of control
15                    O=C(O)C(Br)(Br)Br.[Ag]                T/C   97 % of control
16               C[Si](C)(CCl)N[Si](C)(C)CCl                T/C  102 % of control
17  CC1Sc2ccccc2-c2[nH]c3ccccc3c21 (stereo not drawn)                T/C   90 % of control
18  N=Cc1c(O)n(C2CCCCC2)c(=O)n(C2CCCCC2)c1=O                T/C   96 % of control
19  O=C(CC(NC(=O)OCc1ccccc1)c1nn[nH]n1)OCc1ccccc1 (stereo not drawn)                T/C   91 % of control
20          CC(C)Oc1ccc2c(c1)Sc1ccc(Cl)cc1N2                T/C  102 % of control
21             OC1CCCCC1O (stereo not drawn)                T/C  103 % of control
22  Cc1ccc(C(O)(c2ccccc2)c2ccccc2C(=O)Nc2ccccc2)cc1 (stereo not drawn)                T/C   95 % of control
23                       COC(=O)c1cc(I)ccc1O                T/C  100 % of control
24        O=c1[nH]c(=S)[nH]c(-c2ccccc2)c1CCO                T/C   91 % of control
25            c1ccc(-c2nnc(-c3ccccc3)nn2)cc1                T/C   96 % of control
26      O=c1[nH]nc(-c2cccc3ccccc23)c2ccccc12                T/C   97 % of control
27   O=S(=O)(Nc1ccc2c3c(cccc13)C=C2)c1ccccc1                T/C   98 % of control
